molecular target: AUT-PK 500; assay: Protein kinase assay: autophosphorylation of AUT-PK 500 (32P incorporation from [gamma-32P] ATP); settings: divalent cations; read-out: concentration resulting in half-maximal stimulation of AUT-PK 500
pEC50: −log10 of the molar value.
Entries annotated with measured pEC50
measuredQuantity: pEC50

molecule="[Mg+2] [Mg^2+]" testtarget="AUT-PK 500" numericreadout=2.60
molecule="[Co+2] [Co^2+]" testtarget="AUT-PK 500" numericreadout=2.60
molecule="[Mn+2] [Mn^2+]" testtarget="AUT-PK 500" numericreadout=2.60
molecule="[Sr+2] [Sr^2+]" testtarget="AUT-PK 500" numericreadout=2.60
